Biological target: T1, human CD8αα homodimer, recombinant protein (Acro Biosystems) (human, UniProt P01732 22-182)
T1 construct: also called CD8αα antigen; biotinylated CD8α recombinant protein (CDA-H82E3)
T1 sequence (P01732 22-182 limits assumed): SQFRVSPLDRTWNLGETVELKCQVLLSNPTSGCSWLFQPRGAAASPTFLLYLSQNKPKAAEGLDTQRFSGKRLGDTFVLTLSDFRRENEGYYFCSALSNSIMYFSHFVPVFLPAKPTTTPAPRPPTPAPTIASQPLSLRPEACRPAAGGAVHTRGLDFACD
Test: BLI kinetics, F(ab) on biotinylated CD8α (SA-XT sensor), 1:1 fit, 30 °C
Recorded Metric: koff
State the result as a value with its unit after it.

Binder	koff
CDB1017p (Fab, V domains shown, CDB1017p [sic]; also called CBD1017p; mouse CT8 F(ab)) VH: EVQLQQSGPELVKPGASVKISCKASRYTFTDYNLHWVKLSHEKSLEWIGFIYPYNGGTGYNQKFKNKAKLTVDYSSSTAYMELRSLTSVDAAVYYCARDHRYNEGVSFDYWGQGTTLTVSS VL: NIVLTQSPASLAVSLGQRATISCRASESVDGFGNSFMNWYQQKPGQSPKLLIYLASNLESGVPARFSGSGSRTDFTLTIDPVEADDAATYYCQQNNEDPYTFGGGTKLEIK	7.76e-05 s⁻¹
CBD1017ch Fab (chimeric CT8 Fab) (Fab, V domains shown, Chimeric: variable regions of mouse CT8 (clone RPA-T8) with human constant parts; also called parental CBD1017ch Fab) VH: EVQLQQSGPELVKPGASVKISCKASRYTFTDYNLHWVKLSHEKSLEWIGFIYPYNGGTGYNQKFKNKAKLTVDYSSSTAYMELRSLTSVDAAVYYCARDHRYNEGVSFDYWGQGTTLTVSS VL: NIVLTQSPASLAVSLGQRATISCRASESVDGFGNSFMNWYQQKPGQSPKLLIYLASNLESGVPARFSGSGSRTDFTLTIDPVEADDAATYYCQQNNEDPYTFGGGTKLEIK	5.67e-05 s⁻¹
CBD1039 (Fab, V domains shown, also called h1017-H5/L2 F(ab)) VH: QVQLVQSGAEVKKPGASVKISCKASRYTFTDYNLHWVRQAPGQGLEWIGFIYPYNGGTGYAQKFQGRATLTVDYSTSTAYMELSSLRSEDTAVYYCARDHRYNEGVSFDYWGQGTTLTVSS VL: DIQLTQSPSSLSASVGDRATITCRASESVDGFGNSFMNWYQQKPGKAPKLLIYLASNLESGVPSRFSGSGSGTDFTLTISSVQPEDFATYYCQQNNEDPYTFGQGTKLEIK	0.000157 s⁻¹
CBD1040 (Fab, V domains shown, also called h1017-H5/L3 F(ab)) VH: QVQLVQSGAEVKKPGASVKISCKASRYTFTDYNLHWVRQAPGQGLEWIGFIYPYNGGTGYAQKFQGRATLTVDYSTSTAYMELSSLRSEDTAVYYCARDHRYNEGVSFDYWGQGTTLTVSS VL: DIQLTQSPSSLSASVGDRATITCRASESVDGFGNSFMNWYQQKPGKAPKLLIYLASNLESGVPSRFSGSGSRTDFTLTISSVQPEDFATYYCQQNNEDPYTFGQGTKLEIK	0.00017 s⁻¹
CBD1035 (Fab, V domains shown, also called h1017-H3/L2 F(ab)) VH: QVQLVQSGAEVKKPGASVKISCKASRYTFTDYNLHWVRQAPGQGLEWIGFIYPYNGGTGYAQKFQGRATLTVDTSTSTAYMELSSLRSEDTAVYYCARDHRYNEGVSFDYWGQGTTLTVSS VL: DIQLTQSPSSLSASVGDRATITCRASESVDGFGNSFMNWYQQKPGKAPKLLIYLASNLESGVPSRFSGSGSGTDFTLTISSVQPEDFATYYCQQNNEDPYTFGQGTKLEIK	0.000144 s⁻¹
CBD1038 (Fab, V domains shown, also called h1017-H4/L3 F(ab)) VH: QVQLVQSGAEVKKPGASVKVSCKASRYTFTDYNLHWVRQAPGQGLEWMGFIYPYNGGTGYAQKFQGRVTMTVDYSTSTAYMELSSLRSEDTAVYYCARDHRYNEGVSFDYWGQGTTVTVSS VL: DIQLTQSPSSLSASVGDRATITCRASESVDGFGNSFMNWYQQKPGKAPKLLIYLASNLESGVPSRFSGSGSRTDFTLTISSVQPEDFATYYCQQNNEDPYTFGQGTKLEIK	0.000146 s⁻¹
CBD1032 (Fab, V domains shown, also called h1017-H1/L1 F(ab)) VH: QVQLVQSGAEVKKPGASVKVSCKASRYTFTDYNLHWVRQAPGQGLEWMGFIYPYNGGTGYAQKFQGRVTMTRDTSTSTVYMELSSLRSEDTAVYYCARDHRYNEGVSFDYWGQGTTVTVSS VL: DIQMTQSPSSLSASVGDRVTITCRASESVDGFGNSFMNWYQQKPGKAPKLLIYLASNLESGVPSRFSGSGSGTDFTLTISSLQPEDFATYYCQQNNEDPYTFGQGTKLEIK	9.45e-05 s⁻¹
CBD1033 Fab (h1017-H2 / h1017-L2) (Fab, V domains shown, Expressed as F(ab) fragment; also called CBD1033 Fab molecule) VH: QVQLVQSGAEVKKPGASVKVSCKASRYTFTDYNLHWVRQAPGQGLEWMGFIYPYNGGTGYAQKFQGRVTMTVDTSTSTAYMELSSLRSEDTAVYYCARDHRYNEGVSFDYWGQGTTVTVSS VL: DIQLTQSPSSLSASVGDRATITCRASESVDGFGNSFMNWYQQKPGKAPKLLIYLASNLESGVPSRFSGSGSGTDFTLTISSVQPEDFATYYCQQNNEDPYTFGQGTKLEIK	0.000145 s⁻¹

// query Query (binder): CBD1037 (Fab, V domains shown, also called h1017-H4/L2 F(ab)) VH: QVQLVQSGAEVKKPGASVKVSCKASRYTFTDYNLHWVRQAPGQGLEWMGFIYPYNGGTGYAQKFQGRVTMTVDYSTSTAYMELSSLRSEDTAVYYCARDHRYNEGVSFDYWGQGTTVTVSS VL: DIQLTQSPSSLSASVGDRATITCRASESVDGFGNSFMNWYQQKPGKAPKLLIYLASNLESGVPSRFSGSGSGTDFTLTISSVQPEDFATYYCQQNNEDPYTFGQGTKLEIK ; field requested: koff
// result 0.000114 s⁻¹

// query Query (binder): CBD1034 (Fab, V domains shown, also called h1017-H2/L3 F(ab)) VH: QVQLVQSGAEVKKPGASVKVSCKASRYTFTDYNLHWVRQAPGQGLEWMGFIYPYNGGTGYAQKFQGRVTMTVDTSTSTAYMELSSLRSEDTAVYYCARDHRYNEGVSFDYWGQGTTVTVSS VL: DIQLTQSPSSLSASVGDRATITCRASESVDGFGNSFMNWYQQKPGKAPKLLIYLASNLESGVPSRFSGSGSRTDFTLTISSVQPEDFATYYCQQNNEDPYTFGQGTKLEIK ; field requested: koff
// result 0.000204 s⁻¹

// query Query (binder): CBD1036 (Fab, V domains shown, also called h1017-H3/L3 F(ab)) VH: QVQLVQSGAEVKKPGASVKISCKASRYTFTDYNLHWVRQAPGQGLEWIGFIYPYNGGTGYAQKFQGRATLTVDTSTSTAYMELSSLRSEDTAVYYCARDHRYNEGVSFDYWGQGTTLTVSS VL: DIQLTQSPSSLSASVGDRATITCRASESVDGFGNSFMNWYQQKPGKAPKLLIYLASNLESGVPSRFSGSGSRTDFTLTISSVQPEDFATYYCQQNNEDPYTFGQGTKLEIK ; field requested: koff
// result 0.000207 s⁻¹
